Tested on: Escherichia coli TOP10
Assay: shrunken log2 fold change of peptide-encoding DNA abundance (4.5 h post-induction vs induction); higher = less antimicrobial activity (less host growth inhibition)
Settings: time post-induction: 4.5 h; library: site-saturation at positions 5, 18, 19, 20
Rule: condition met for shrunken log2 fold change not less than 0.02, condition not met for anything less.

Does the reported shrunken log2 fold change for `RRIRTRPPRLPRPRPRPFTVPRP` fall at or above the 0.02 mark?
condition not met

Given `RRIRYRPPRLPRPRPRPSNMPRP` , state whether its shrunken log2 fold change is at least 0.02.
condition not met

Given the entry `RRIRRRPPRLPRPRPRPKFYPRP` , answer whether its shrunken log2 fold change meets or surpasses 0.02.
condition not met

Can `RRIRMRPPRLPRPRPRPEQAPRP` be said to have shrunken log2 fold change at or above 0.02?
condition met

State whether the measured shrunken log2 fold change reaches 0.02, counting equality as reaching it, for `RRIRKRPPRLPRPRPRPAFRPRP`
condition met

Quick check: does `RRIRARPPRLPRPRPRPAFPPRP` have shrunken log2 fold change greater than or equal to 0.02?
condition met

Next:
Evaluate `RRIRPRPPRLPRPRPRPWHRPRP` : shrunken log2 fold change at minimum 0.02?
condition not met

API: above_or_equal(metric=shrunken log2 fold change, cutoff=0.02) for item `RRIRNRPPRLPRPRPRPHGHPRP`
condition not met

API: above_or_equal(metric=shrunken log2 fold change, cutoff=0.02) for item `RRIRHRPPRLPRPRPRPFPQPRP`
condition met

---

System: Escherichia coli TOP10
Assay: shrunken log2 fold change of peptide-encoding DNA abundance (4.5 h post-induction vs induction); higher = less antimicrobial activity (less host growth inhibition)
Settings: time post-induction: 4.5 h; library: site-saturation at positions 5, 18, 19, 20
Can you tell me shrunken log2 fold change for the items I'm about to list?
One number for each entry.

Record lookup: for Escherichia coli TOP10, what shrunken log2 fold change belongs to `RRIRLRPPRLPRPRPRPYCWPRP` ?
-0.37

For the record `RRIRNRPPRLPRPRPRPHSIPRP` , what value of shrunken log2 fold change is listed for Escherichia coli TOP10?
-0.209

# value lookup — system Escherichia coli TOP10, readout shrunken log2 fold change, item `RRIRERPPRLPRPRPRPQPLPRP`
-0.202

Under Escherichia coli TOP10: shrunken log2 fold change value of `RRIRIRPPRLPRPRPRPDGLPRP` ?
0.0731

Recorded shrunken log2 fold change for `RRIRLRPPRLPRPRPRPLCRPRP` with Escherichia coli TOP10, please?
-0.496

Batch lookup, shrunken log2 fold change per entry.
1. RRIRCRPPRLPRPRPRPFYEPRP
2. RRIRRRPPRLPRPRPRPIERPRP
3. RRIRVRPPRLPRPRPRPPYHPRP
4. RRIRRRPPRLPRPRPRPCAAPRP
5. RRIRPRPPRLPRPRPRPVSIPRP
6. RRIRQRPPRLPRPRPRPDPDPRP
7. RRIRIRPPRLPRPRPRPVLTPRP

-0.741
0.0771
-0.284
0.743
-0.271
-0.00136
-0.0413

---

Tested on: Escherichia coli TOP10
Test: shrunken log2 fold change of peptide-encoding DNA abundance (4.5 h post-induction vs induction); higher = less antimicrobial activity (less host growth inhibition)
Conditions: time post-induction: 4.5 h; library: site-saturation at positions 5, 18, 19, 20
READOUT: shrunken log2 fold change
Numbers only.

Below, each entry is followed by its recorded shrunken log2 fold change result.
Given the sequence `RRIRTRPPRLPRPRPRPCGEPRP` , what is its reported shrunken log2 fold change?
-0.23

Requested read-out: shrunken log2 fold change. Entry: `RRIRMRPPRLPRPRPRPLCMPRP`
0.0571

Tell me the measured shrunken log2 fold change of `RRIRKRPPRLPRPRPRPNALPRP` , please.
0.301

Go through the items and report each one's shrunken log2 fold change.
1. RRIRRRPPRLPRPRPRPSKWPRP
2. RRIRSRPPRLPRPRPRPEHSPRP
3. RRIRTRPPRLPRPRPRPKTKPRP
4. RRIRGRPPRLPRPRPRPHKDPRP

-0.149
-0.182
-0.212
0.11

---

System: Escherichia coli TOP10
Assay: shrunken log2 fold change of peptide-encoding DNA abundance (4.5 h post-induction vs induction); higher = less antimicrobial activity (less host growth inhibition)
Settings: time post-induction: 4.5 h; library: site-saturation at positions 5, 18, 19, 20
READOUT: shrunken log2 fold change
Numbers only.

# annotated cases, reported shrunken log2 fold change shown
For the sequence shown here, `RRIRYRPPRLPRPRPRPGSKPRP` , give the reported shrunken log2 fold change.
-0.0678

# shrunken log2 fold change lookup, item `RRIRERPPRLPRPRPRPLANPRP`
-0.225

Looking for the measured shrunken log2 fold change of `RRIRFRPPRLPRPRPRPENSPRP` , can you help?
-3.45e-05

# input sequence: `RRIRIRPPRLPRPRPRPVVGPRP` ; wanted: its shrunken log2 fold change
0.0233

GET /values?readout=shrunken log2 fold change&item= `RRIRTRPPRLPRPRPRPVIKPRP`
-0.237

May I ask what shrunken log2 fold change has been recorded for `RRIRGRPPRLPRPRPRPGTDPRP` ?
0.472

What value of measured shrunken log2 fold change is listed for `RRIRKRPPRLPRPRPRPKDVPRP` ?
-0.018

Consider the sequence shown here: `RRIRKRPPRLPRPRPRPNRHPRP` What is its recorded shrunken log2 fold change?
-0.0212

Please give shrunken log2 fold change, item by item, for the list that follows.
1. RRIRIRPPRLPRPRPRPVTWPRP
2. RRIRVRPPRLPRPRPRPSWMPRP
3. RRIRWRPPRLPRPRPRPVRYPRP

1. -0.372
2. -0.139
3. 0.00421

---

Tested on: Escherichia coli TOP10
Assay: shrunken log2 fold change of peptide-encoding DNA abundance (4.5 h post-induction vs induction); higher = less antimicrobial activity (less host growth inhibition)
Conditions: time post-induction: 4.5 h; library: site-saturation at positions 5, 18, 19, 20
Outcome label depends on shrunken log2 fold change relative to -0.008: at/above gives 1 (yes), below gives 0 (no).

Previously resolved entries follow.
Reported shrunken log2 fold change reaches at least -0.008 for `RRIRDRPPRLPRPRPRPGCNPRP` ?
1 (yes)

Threshold query (shrunken log2 fold change >= -0.008) on `RRIRHRPPRLPRPRPRPYLTPRP`
0 (no)

Does shrunken log2 fold change meet or surpass -0.008 for `RRIRSRPPRLPRPRPRPWGFPRP` ?
0 (no)

Is shrunken log2 fold change at least -0.008? Consider `RRIRQRPPRLPRPRPRPEFDPRP`
1 (yes)

Exam item: decide whether the reported shrunken log2 fold change for `RRIRVRPPRLPRPRPRPQAPPRP` is at least -0.008.
1 (yes)

Is the recorded value of shrunken log2 fold change equal to or greater than -0.008 for this sequence? `RRIRHRPPRLPRPRPRPQGTPRP`
0 (no)

---
Decide: is the reported value of shrunken log2 fold change for `RRIRHRPPRLPRPRPRPIPWPRP` equal to or greater than -0.008?
1 (yes)

Determine whether measured shrunken log2 fold change meets or exceeds -0.008 for `RRIRGRPPRLPRPRPRPDPVPRP`
1 (yes)

Please check the record `RRIRTRPPRLPRPRPRPTPMPRP` and state if its shrunken log2 fold change is at or above -0.008.
1 (yes)

Decide: shrunken log2 fold change of `RRIRKRPPRLPRPRPRPGWHPRP` >= -0.008?
1 (yes)

Textbook exercise: given the entry `RRIRGRPPRLPRPRPRPKVQPRP` , state whether its shrunken log2 fold change is greater than or equal to -0.008.
1 (yes)

Quick check: does `RRIRDRPPRLPRPRPRPCNRPRP` have shrunken log2 fold change greater than or equal to -0.008?
0 (no)

---

System: Escherichia coli TOP10;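 note: peptides expressed intracellularly from a pBAD plasmid library in pooled LB shake-flask culture, induced with 0.3% L-arabinose, DNA abundance read by NGS, three biological replicates, DESeq2 with apeglm shrinkage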
Test: shrunken log2 fold change of peptide-encoding DNA abundance (4.5 h post-induction vs induction); higher = less antimicrobial activity (less host growth inhibition)
Settings: time post-induction: 4.5 h; library: site-saturation at positions 5, 18, 19, 20
Cut-off 0.03 on shrunken log2 fold change, inclusive. At or above means 1 (yes); below means 0 (no).

State whether the measured shrunken log2 fold change reaches 0.03, counting equality as reaching it, for `RRIRRRPPRLPRPRPRPNCTPRP`
0 (no)

---
Quick check, shrunken log2 fold change >= 0.03? `RRIRLRPPRLPRPRPRPKHTPRP`
1 (yes)

I'd appreciate it if you could say whether `RRIRTRPPRLPRPRPRPEGHPRP` has shrunken log2 fold change at least equal to 0.03.
0 (no)

Could you verify whether the entry `RRIRMRPPRLPRPRPRPCAGPRP` shows shrunken log2 fold change of no less than 0.03?
1 (yes)

Determine whether measured shrunken log2 fold change meets or exceeds 0.03 for `RRIRDRPPRLPRPRPRPWHHPRP`
0 (no)

Given `RRIRARPPRLPRPRPRPIRTPRP` , state whether its shrunken log2 fold change is at least 0.03.
1 (yes)

Test whether the sequence `RRIRMRPPRLPRPRPRPSVEPRP` records shrunken log2 fold change of 0.03 or higher.
1 (yes)
